Measured values drawn from patent US8741934B2 for this set.

Field: inhibition at 3 µM. Provide a value for each of the molecules that follow.
- tested_on: hSCN3A sodium channels (Homo sapiens, UniProt Q9NY46)
- Construct: expressed in transfected cells
- Sequence (Q9NY46 whole entry): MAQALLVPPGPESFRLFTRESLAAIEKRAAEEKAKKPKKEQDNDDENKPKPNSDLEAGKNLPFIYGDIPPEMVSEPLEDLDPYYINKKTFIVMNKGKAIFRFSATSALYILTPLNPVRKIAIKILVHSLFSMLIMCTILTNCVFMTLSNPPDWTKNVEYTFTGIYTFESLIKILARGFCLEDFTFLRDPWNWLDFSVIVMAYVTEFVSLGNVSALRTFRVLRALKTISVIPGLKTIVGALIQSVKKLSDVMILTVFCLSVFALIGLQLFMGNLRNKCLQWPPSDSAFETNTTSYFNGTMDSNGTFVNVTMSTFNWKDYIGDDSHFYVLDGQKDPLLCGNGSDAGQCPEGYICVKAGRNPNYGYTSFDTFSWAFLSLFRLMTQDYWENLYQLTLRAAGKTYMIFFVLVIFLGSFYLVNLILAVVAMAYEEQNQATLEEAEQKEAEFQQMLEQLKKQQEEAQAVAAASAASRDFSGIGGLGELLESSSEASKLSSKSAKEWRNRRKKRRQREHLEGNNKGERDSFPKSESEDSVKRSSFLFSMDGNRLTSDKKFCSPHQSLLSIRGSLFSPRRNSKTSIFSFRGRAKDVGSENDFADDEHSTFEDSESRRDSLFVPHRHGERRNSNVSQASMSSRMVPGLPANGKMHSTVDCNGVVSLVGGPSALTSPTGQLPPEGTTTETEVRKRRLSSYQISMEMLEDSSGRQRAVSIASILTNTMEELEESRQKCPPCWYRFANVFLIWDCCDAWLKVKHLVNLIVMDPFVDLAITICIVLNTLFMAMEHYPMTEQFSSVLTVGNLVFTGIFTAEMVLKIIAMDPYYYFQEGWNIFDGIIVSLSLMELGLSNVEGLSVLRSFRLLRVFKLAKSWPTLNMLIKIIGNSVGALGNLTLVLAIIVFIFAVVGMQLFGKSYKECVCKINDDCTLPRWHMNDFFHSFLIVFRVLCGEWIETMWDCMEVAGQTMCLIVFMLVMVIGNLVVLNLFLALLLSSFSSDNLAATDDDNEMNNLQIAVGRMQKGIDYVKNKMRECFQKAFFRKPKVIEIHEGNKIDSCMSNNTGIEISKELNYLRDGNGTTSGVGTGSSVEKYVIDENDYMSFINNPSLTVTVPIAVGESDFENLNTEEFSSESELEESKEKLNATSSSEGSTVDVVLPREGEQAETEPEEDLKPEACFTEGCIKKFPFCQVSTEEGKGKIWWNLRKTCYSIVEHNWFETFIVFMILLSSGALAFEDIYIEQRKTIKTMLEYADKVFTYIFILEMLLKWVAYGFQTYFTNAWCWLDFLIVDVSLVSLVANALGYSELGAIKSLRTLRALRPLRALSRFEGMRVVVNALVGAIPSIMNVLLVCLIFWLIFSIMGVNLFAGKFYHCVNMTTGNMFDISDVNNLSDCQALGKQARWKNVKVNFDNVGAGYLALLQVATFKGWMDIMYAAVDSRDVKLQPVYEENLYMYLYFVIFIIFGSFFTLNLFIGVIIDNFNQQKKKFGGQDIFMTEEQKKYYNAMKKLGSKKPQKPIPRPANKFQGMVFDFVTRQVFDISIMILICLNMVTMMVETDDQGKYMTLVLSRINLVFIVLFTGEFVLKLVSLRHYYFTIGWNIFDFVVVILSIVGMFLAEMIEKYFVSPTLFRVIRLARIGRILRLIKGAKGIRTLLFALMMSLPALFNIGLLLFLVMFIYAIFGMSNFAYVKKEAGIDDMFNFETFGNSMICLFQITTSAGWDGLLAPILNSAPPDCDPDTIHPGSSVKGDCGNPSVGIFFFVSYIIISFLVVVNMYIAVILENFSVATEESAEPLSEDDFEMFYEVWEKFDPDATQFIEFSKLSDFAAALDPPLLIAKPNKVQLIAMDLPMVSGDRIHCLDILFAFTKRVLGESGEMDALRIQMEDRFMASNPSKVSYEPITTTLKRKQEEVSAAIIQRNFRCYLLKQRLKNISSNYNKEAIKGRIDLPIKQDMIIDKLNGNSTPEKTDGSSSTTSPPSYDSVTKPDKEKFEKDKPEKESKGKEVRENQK
- assay: hSCN3A electrophysiology, Ionworks Quattro automated platform (Table C)
- Type: cell-based
- setup_conditions: 3 μM compound, read-out: SCN3A % INHIB HTS IWQ 3 μM
Answer with the figure and its unit, nothing else.

{"molecule": "O=C(c1ccc(S(=O)(=O)Nc2nccs2)cc1)N1CCC(Cc2ccccc2)C1 (stereo not shown)", "result": "29.1%"}
{"molecule": "O=C(NCc1cc(F)ccc1C(F)(F)F)c1ccc(S(=O)(=O)Nc2nccs2)cc1", "result": "34.7%"}
{"molecule": "O=C(NCc1cc(F)ccc1F)c1ccc(S(=O)(=O)Nc2nccs2)cc1", "result": "36.9%"}

Request: Field request: inhibition at 3 µM | item: COc1ccc(OC2CCCN(C(=O)c3ccc(S(=O)(=O)Nc4nccs4)cc3)C2)cc1 (stereo not shown)
Response: 13.1%

----------
- tested_on: hSCN3A sodium channels (Homo sapiens)
- Construct: expressed in transfected cells
- assay: hSCN3A electrophysiology, Ionworks Quattro automated platform (Table C)
- Format: cell-based
- setup_conditions: 10 μM compound, read-out: SCN3A % INHIB HTS IWQ 10 μM
value_type: inhibition at 10 µM (%)
Answers are plain numbers, in %.

Field: example entries. Status: answers known.
{"molecule": "COc1cccc(CC2CCCN2C(=O)c2ccc(S(=O)(=O)Nc3nccs3)cc2)c1 (stereo not shown)", "tested_on": "hSCN3A sodium channels (Homo sapiens)", "value_type": "inhibition at 10 µM", "u": "%", "numeric_value": 20.2}
{"molecule": "Cc1ccnc(CC2CCCN2C(=O)c2ccc(S(=O)(=O)Nc3nccs3)cc2)c1 (stereo not shown)", "tested_on": "hSCN3A sodium channels (Homo sapiens)", "value_type": "inhibition at 10 µM", "u": "%", "numeric_value": 14.7}
{"molecule": "CCN(C(=O)c1ccc(S(=O)(=O)Nc2nccs2)cc1)[C@H](CO)c1ccccc1", "tested_on": "hSCN3A sodium channels (Homo sapiens)", "value_type": "inhibition at 10 µM", "u": "%", "numeric_value": 1.08}
{"molecule": "O=C(c1ccc(S(=O)(=O)Nc2nccs2)cc1)N(Cc1ccc(F)cc1)C1CC1", "tested_on": "hSCN3A sodium channels (Homo sapiens)", "value_type": "inhibition at 10 µM", "u": "%", "numeric_value": -0.51}
{"molecule": "CCN(C(=O)c1ccc(S(=O)(=O)Nc2nccs2)cc1)C(C)C(=O)c1ccccc1 (stereo not shown)", "tested_on": "hSCN3A sodium channels (Homo sapiens)", "value_type": "inhibition at 10 µM", "u": "%", "numeric_value": -5.23}
{"molecule": "O=C(c1ccc(S(=O)(=O)Nc2nccs2)cc1)N1CCSCC1c1ccc(F)cc1 (stereo not shown)", "tested_on": "hSCN3A sodium channels (Homo sapiens)", "value_type": "inhibition at 10 µM", "u": "%", "numeric_value": 47.5}

Request: # returns recorded inhibition at 10 µM (system: hSCN3A sodium channels (Homo sapiens)) for COc1cccc(C2CCCCCN2C(=O)c2ccc(S(=O)(=O)Nc3nccs3)cc2)c1 (stereo not shown)
Response: -0.2

----------
Field: inhibition at 10 µM. Provide a value for each of the compounds that follow.
- tested_on: hSCN3A sodium channels (Homo sapiens)
- Construct: expressed in transfected cells
- assay: hSCN3A electrophysiology, Ionworks Quattro automated platform (Table C)
- Assay type: cell-based
- setup_conditions: 10 μM compound, read-out: SCN3A % INHIB HTS IWQ 10 μM
Answers are plain numbers, in %.

{"compound": "O=C(c1ccc(S(=O)(=O)Nc2nccs2)cc1)N1CCOC(COc2cccc(Cl)c2)C1 (stereo not drawn) [Example 234]", "value_type": "inhibition at 10 µM", "numeric_value": 45.9}
{"compound": "O=C(c1ccc(S(=O)(=O)Nc2nccs2)cc1)N1CCC(CCc2ccccc2)C1 (stereo not drawn) [Example 227]", "value_type": "inhibition at 10 µM", "numeric_value": 45.8}

Request: Field request: inhibition at 10 µM | item: O=C(NCCOc1ccccc1)c1ccc(S(=O)(=O)Nc2nccs2)cc1 [Example 168]
Response: 39.3

----------
- tested_on: hSCN3A sodium channels (Homo sapiens, UniProt Q9NY46)
- Construct: expressed in transfected cells
- assay: hSCN3A electrophysiology, whole-cell patch-clamp or PatchXpress 7000, estimated IC-50 (Table B)
- Assay type: cell-based
- setup_conditions: estimated IC-50; hSCN3A cells, whole-cell patch-clamp or PatchXpress 7000; read-out: SCN3A EIC-50
value_type: IC50 (nM)
Answers are plain numbers, in nM.

Field: example entries. Status: answers known.
{"molecule": "Cc1cc(NC(=O)c2ccc(S(=O)(=O)Nc3nccs3)cc2)n(-c2ccccc2)n1", "u": "nM", "IC50": 23700}
{"molecule": "O=C(c1ccc(S(=O)(=O)Nc2nccs2)cc1)N1CCSCC1c1ccccc1Cl (centres unmarked)", "u": "nM", "IC50": 1550}
{"molecule": "O=C(NCc1ccc(C(F)(F)F)cc1)c1ccc(S(=O)(=O)Nc2cnoc2)cc1", "u": "nM", "IC50": 23300}
{"molecule": "O=C(NCc1cccc(C(F)(F)F)c1)c1ccc(S(=O)(=O)Nc2nccs2)cc1F", "u": "nM", "IC50": 260}
{"molecule": "O=C(NCc1ccc(OC(F)(F)F)cc1)c1ccc(S(=O)(=O)Nc2ncc(Cl)s2)cc1", "u": "nM", "IC50": 70}
{"molecule": "O=C(NCc1ccc(F)c(Cl)c1)c1ccc(S(=O)(=O)Nc2ncc(Cl)s2)c(Cl)c1", "u": "nM", "IC50": 1200}
{"molecule": "O=C(NCc1cccc(OC(F)F)c1)c1ccc(S(=O)(=O)Nc2nccs2)cc1", "u": "nM", "IC50": 1090}

Turning now to a further molecule:
Request: # returns recorded IC50 (system: hSCN3A sodium channels (Homo sapiens, UniProt Q9NY46)) for CC(CNC(=O)c1ccc(S(=O)(=O)Nc2nccs2)cc1)Oc1ccccc1Cl (centres unmarked)
Response: 2520

----------
- tested_on: hSCN3A sodium channels (Homo sapiens)
- Construct: expressed in transfected cells
- assay: hSCN3A electrophysiology, Ionworks Quattro automated platform (Table C)
- Format: cell-based
- setup_conditions: 10 μM compound, read-out: SCN3A % INHIB HTS IWQ 10 μM
# cutoff 20% applies to inhibition at 10 µM; >= gives true (1), < gives false (0)

# count of solved cases: 5
{"molecule": "O=C(N[C@@H]1CCC[C@@H]1c1ccc(F)cc1)c1ccc(S(=O)(=O)Nc2nccs2)cc1 [Example 132]", "tested_on": "hSCN3A sodium channels (Homo sapiens)", "label": "false (0)"}
{"molecule": "COc1cccc(C2(NC(=O)c3ccc(S(=O)(=O)Nc4nccs4)cc3)CC2)c1 [Example 164]", "tested_on": "hSCN3A sodium channels (Homo sapiens)", "label": "true (1)"}
{"molecule": "CC(C)(NC(=O)c1ccc(S(=O)(=O)Nc2nccs2)cc1)c1ccc(F)c(F)c1 [Example 146]", "tested_on": "hSCN3A sodium channels (Homo sapiens)", "label": "true (1)"}
{"molecule": "COc1ccc(C2CC(CO)CN2C(=O)c2ccc(S(=O)(=O)Nc3nccs3)cc2)cc1 (centres unmarked) [Example 280]", "tested_on": "hSCN3A sodium channels (Homo sapiens)", "label": "false (0)"}
{"molecule": "Cc1cccc(C2(C)CN(C(=O)c3ccc(S(=O)(=O)Nc4nccs4)cc3)CCO2)c1 (centres unmarked) [Example 189]", "tested_on": "hSCN3A sodium channels (Homo sapiens)", "label": "true (1)"}

Request: Determine whether measured inhibition at 10 µM meets or exceeds 20% for O=C(c1ccc(S(=O)(=O)Nc2nccs2)cc1)N1CCCC1c1ccccn1 (centres unmarked) [Example 283]
Response: false (0)

Request: Determine whether measured inhibition at 10 µM meets or exceeds 20% for O=C(N[C@@H](CO)Cc1ccccc1)c1ccc(S(=O)(=O)Nc2nccs2)cc1 [Example 185]
Response: true (1)

Request: Determine whether measured inhibition at 10 µM meets or exceeds 20% for C[C@@H](c1ccccc1)N(C)C(=O)c1ccc(S(=O)(=O)Nc2nccs2)cc1 [Example 256]
Response: false (0)

Request: Determine whether measured inhibition at 10 µM meets or exceeds 20% for CCOc1ccccc1CNC(=O)c1ccc(S(=O)(=O)Nc2nccs2)cc1 [Example 89]
Response: true (1)

Request: Determine whether measured inhibition at 10 µM meets or exceeds 20% for O=C(NCCc1ccccc1F)c1ccc(S(=O)(=O)Nc2nccs2)cc1 [Example 77]
Response: true (1)

Request: Determine whether measured inhibition at 10 µM meets or exceeds 20% for O=C1[C@@H]2CC[C@@H]3[C@H]1C(c1ccccc1)N(C(=O)c1ccc(S(=O)(=O)Nc4nccs4)cc1)[C@H]3C2 (some centres unmarked) [Example 192]
Response: true (1)

Request: Determine whether measured inhibition at 10 µM meets or exceeds 20% for CN(C(=O)c1ccc(S(=O)(=O)Nc2nccs2)cc1)C(Cc1ccccc1)c1ccccc1 (centres unmarked) [Example 251]
Response: false (0)

Request: Determine whether measured inhibition at 10 µM meets or exceeds 20% for O=C(NCc1cc(F)ccc1F)c1ccc(S(=O)(=O)Nc2nccs2)cc1 [Example 87]
Response: true (1)

Request: Determine whether measured inhibition at 10 µM meets or exceeds 20% for O=C(c1ccc(S(=O)(=O)Nc2nccs2)cc1)N1CCCCC1COc1ccccc1 (centres unmarked) [Example 224]
Response: false (0)
